Origin of the recorded values: patent US20250236608A1

Consider the following compounds and their measured log10(IC50) readings.
target_or_system: pEGFR (Tyr1068) in PC-9 cells (Ex19Del) (Homo sapiens (Human), UniProt P00533, DEL746-750)
Sequence (P00533 other isoform, or with tags, fused parts or gaps del 746-750): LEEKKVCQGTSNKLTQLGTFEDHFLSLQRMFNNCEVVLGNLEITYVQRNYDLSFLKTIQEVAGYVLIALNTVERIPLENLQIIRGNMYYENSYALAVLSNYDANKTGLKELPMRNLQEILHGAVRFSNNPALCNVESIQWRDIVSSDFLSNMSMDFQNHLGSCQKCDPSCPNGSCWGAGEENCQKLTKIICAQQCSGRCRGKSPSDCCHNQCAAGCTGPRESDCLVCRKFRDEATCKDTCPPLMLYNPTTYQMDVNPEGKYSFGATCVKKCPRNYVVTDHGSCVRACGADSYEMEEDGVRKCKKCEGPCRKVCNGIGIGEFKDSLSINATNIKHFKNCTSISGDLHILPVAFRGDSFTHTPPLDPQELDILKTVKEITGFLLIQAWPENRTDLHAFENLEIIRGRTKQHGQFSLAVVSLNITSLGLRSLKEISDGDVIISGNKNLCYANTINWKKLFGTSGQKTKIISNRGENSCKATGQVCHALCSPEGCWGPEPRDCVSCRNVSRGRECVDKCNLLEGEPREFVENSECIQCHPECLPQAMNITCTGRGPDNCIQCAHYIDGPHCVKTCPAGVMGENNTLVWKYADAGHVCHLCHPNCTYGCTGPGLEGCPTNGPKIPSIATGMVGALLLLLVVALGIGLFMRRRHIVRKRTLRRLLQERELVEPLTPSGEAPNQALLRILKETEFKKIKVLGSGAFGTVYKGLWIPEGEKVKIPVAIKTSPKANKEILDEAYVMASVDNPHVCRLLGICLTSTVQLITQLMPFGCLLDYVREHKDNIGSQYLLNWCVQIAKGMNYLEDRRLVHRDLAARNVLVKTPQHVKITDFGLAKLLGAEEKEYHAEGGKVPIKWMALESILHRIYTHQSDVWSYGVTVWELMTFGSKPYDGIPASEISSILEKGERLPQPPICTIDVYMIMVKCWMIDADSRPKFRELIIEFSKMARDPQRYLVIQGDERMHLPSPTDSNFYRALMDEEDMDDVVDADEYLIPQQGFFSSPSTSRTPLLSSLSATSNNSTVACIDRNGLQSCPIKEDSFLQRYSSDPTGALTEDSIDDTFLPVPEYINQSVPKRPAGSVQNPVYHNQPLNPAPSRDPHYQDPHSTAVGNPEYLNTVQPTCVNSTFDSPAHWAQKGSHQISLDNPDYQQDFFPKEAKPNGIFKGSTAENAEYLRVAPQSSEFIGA
assay_summary: PC-9 pEGFR AlphaLISA assay
assay_conditions: 4 hours incubation, p-EGFR (Tyr1068) AlphaLISA, read-out: Ext pEGFR_PC-9 Ex19Del IC50
property: log10(IC50) (log10 of the value in nM)

In [3]: df
Out[3]:
                                   compound     property  obs_value
0  COc1cc2ncnc(-c3cn(CC(F)F)nc3-c3ccccc3)c2cc1NC(=O)c1cncs1  log10(IC50)      -0.22
1  COc1cc2ncnc(-c3cn(C)nc3-c3ccccc3)c2cc1NC(=O)C1(C)CCCO1 (stereo not drawn)  log10(IC50)       0.59
2  COc1cc2ncnc(-c3cn(C)nc3-c3c(F)cccc3F)c2cc1NC(=O)[C@]12C[C@H]1CN(C)C2  log10(IC50)       0.95
3  CCOc1cc2ncnc(-c3cn(C(C)C)nc3-c3ccccc3)c2cc1[C@H](C)O (single isomer, unassigned)  log10(IC50)       0.40
4  COc1cc2ncnc(-c3cn(C)nc3-c3ccccc3)c2cc1NC(=O)c1ncccn1  log10(IC50)       0.20
5  COc1cc2ncnc(-c3cn(C)nc3-c3ccccc3)c2cc1NC(=O)C1CCN1 (stereo not drawn)  log10(IC50)       0.75
